Data provenance: paper PMC8892849

assay: In vitro cytotoxic assay; format: cell-based; conditions: normal peripheral blood mononuclear cells (PBMCs)
QUANTITY KIND: IC50 at 48 h (µM)
Please reply with the bare figure in µM and do not write the unit itself.

[in] Retrieve IC50 at 48 h measured for S=c1[nH]c(Cc2ccccc2)nc(=Nc2nccs2)[nH]1 [Compound 8b] and print it.
[out] 197

[in] Output IC50 at 48 h of Oc1cccc(Nc2nnc(Cc3ccccc3)[nH]2)c1 [Compound 5c]
[out] 146

[in] Fill in IC50 at 48 h for record COc1cccc2c1C(=O)c1c(O)c3c(c(O)c1C2=O)C[C@@](O)(C(=O)CO)C[C@@H]3O[C@H]1C[C@H](N)[C@H](O)[C@H](C)O1 [DOX, doxorubicin, reference compound]
[out] 250

[in] Report IC50 at 48 h, nothing else, for this compound: CC(C)NC(=S)NC(=O)Cc1ccccc1 [Compound 2a]
[out] 121

[in] Please indicate IC50 at 48 h recorded for C#Cc1cccc(Nc2ncnc3cc(OCCOC)c(OCCOC)cc23)c1 [erlotinib, reference compound]
[out] 45.8

[in] Complete the entry with IC50 at 48 h for Nc1ccccc1NC(=S)NC(=O)Cc1ccccc1 [Compound 2c]
[out] 145

[in] Quote IC50 at 48 h reported for c1ccc(Cc2nc(Nc3nccs3)n(-c3ccccc3)n2)cc1 [Compound 6a] please.
[out] 157

[in] Answer with reported IC50 at 48 h of O=[N+]([O-])c1ccc(Nc2nc(Cc3ccccc3)nn2-c2ccccc2)c(Cl)c1 [Compound 6c]
[out] 188

====

target: EGFR^WT (Homo sapiens)
Sequence (P00533 25-1210): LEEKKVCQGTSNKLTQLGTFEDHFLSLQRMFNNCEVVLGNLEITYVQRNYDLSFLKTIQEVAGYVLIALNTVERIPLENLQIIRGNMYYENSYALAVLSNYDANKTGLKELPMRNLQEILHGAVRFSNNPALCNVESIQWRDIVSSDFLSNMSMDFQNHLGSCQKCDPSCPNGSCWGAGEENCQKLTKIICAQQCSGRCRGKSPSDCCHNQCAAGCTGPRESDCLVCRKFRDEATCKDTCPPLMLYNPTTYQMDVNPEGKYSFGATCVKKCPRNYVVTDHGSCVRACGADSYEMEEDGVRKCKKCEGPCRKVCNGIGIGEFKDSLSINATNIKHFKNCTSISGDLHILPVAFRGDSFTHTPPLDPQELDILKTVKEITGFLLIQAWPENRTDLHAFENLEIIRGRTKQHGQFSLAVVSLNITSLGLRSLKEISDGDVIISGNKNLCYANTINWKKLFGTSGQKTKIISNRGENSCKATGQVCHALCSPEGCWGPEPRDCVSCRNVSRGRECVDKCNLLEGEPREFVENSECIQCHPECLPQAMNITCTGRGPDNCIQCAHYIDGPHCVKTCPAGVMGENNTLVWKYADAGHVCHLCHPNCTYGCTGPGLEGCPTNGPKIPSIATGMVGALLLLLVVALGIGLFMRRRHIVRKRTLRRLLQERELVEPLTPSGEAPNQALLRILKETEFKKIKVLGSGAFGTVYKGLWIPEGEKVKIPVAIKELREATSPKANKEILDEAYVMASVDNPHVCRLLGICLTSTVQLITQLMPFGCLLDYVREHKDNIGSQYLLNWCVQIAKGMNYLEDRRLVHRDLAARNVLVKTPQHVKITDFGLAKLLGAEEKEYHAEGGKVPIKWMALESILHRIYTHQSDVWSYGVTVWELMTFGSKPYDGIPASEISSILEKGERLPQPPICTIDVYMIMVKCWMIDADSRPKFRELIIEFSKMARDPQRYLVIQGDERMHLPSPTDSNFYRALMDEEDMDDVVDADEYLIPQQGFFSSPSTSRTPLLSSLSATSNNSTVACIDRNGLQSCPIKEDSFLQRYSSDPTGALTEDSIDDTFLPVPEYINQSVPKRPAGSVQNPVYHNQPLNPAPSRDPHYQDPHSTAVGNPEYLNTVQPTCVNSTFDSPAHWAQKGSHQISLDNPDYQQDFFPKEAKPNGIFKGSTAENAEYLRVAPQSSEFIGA
Each record is given True if its reported IC50 is strictly below 200 nM. Records at or above 200 nM are given False.

[in] Strictly below 200 nM in IC50? Oc1cccc(Nc2nnc(Cc3ccccc3)[nH]2)c1 [Compound 5c]
[out] False

[in] Threshold test, IC50 < 200 nM: c1ccc(Cc2nnc(Nc3nccs3)[nH]2)cc1 [Compound 5b]
[out] False

[in] # strict comparison: is reported IC50 < 200 nM? input = Oc1cccc(Nc2nc(Cc3ccccc3)nn2-c2ccccc2)c1 [Compound 6b]
[out] True

[in] Input CC(C)Nc1nnc(Cc2ccccc2)[nH]1 [Compound 5a] ; condition: IC50 strictly below 200 nM. Does it hold?
[out] False

[in] Say whether its IC50 is strictly beneath 200 nM. Entry: c1ccc(Cc2nc(Nc3nccs3)n(-c3ccccc3)n2)cc1 [Compound 6a]
[out] True

[in] Does the reported IC50 of the following molecule sit strictly below 200 nM? O=[N+]([O-])c1ccc(Nc2nc(Cc3ccccc3)nn2-c2ccccc2)c(Cl)c1 [Compound 6c]
[out] True

[in] Find out if reported IC50 for O=c1nc(Cc2ccccc2)[nH]c(Nc2nccs2)n1 [Compound 7] is less than 200 nM
[out] False

====

Kindly supply the reported pIC50 values for the records listed here.
test system: prostate carcinoma (PC-3); assay: In vitro cytotoxic assay; assay type: cell-based, human; settings: Homo sapiens, 48 h, read-out: IC50 (mean ± SEM) PC-3
// pIC50 is dimensionless: -log10 of concentration (M)

[in] State recorded pIC50 with prostate carcinoma (PC-3), entry "Oc1cccc(Nc2nc(Cc3ccccc3)nn2-c2ccccc2)c1" , no comment.
[out] 4.88

[in] # return pIC50 for C#Cc1cccc(Nc2ncnc3cc(OCCOC)c(OCCOC)cc23)c1 [erlotinib, reference compound] , test system: prostate carcinoma (PC-3)
[out] 5.05

[in] Check prostate carcinoma (PC-3) data and give pIC50 for "O=C(Cc1ccccc1)Nc1nc2ccccc2[nH]1" .
[out] 4.76

[in] Output reported pIC50 of the compound COc1cccc2c1C(=O)c1c(O)c3c(c(O)c1C2=O)C[C@@](O)(C(=O)CO)C[C@@H]3O[C@H]1C[C@H](N)[C@H](O)[C@H](C)O1 [DOX, doxorubicin, reference compound] on prostate carcinoma (PC-3).
[out] 5.09
